So I've got a bunch of compounds here, and I need their Ki values.
Target: PknB (Mycobacterium tuberculosis)
Construct: made in house
Assay: biochemical
Design: species or system M. tuberculosis
Conditions: 3 nM PknB, 6 uM GarA, 3 μM ATP, 30 min; competitive tight-binding fit; several symbols in a cell = repeat determinations; read-out: Ki Values

Solved entries (count: 3):
# Compound, Ki
records = [
    ("CC(C)(C)NS(=O)(=O)c1ccc(-c2ncc(C(F)(F)F)c(Nc3cc(C4CC4)n[nH]3)n2)s1 [Compound 162]", "0.5 to 1 µM"),
    ("CN(C)S(=O)(=O)c1ccc(-c2ncc(Cl)c(Nc3cc(C4CC4)[nH]n3)n2)s1 [Compound 74]", "0.001 to 0.01 µM"),
    ("Cc1cnc(-c2ccc(CC#N)cc2)nc1Nc1cc(C2CC2)[nH]n1 [Compound 24]", "0.01 to 0.05 µM"),
]

From here, focus on the item given below.
The compound NS(=O)(=O)c1ccc(-c2ncc(Cl)c(Nc3cc[nH]n3)n2)s1 [Compound 221] showed Ki equal to 0.001 to 0.01 µM

---

Biological target: PknB (Mycobacterium tuberculosis)
Construct: made in house
Assay: biochemical
Set-up: species or system M. tuberculosis
Conditions: 3 nM PknB, 6 uM GarA, 3 μM ATP, 30 min; competitive tight-binding fit; several symbols in a cell = repeat determinations; read-out: Ki Values
So I've got a bunch of molecules here, and I need their Ki values.

Solved entries (count: 4):
# Molecule, Assay Readout, Recorded Result
records = [
    ("C#Cc1cnc(-c2ccc([C@@H](O)C(C)C)s2)nc1Nc1cc(C2CC2)n[nH]1 (stereo in doubt) [Compound 210]", "Ki", "10 to 50 nM"),
    ("CC(C)(C)OC(=O)NCCNS(=O)(=O)c1ccc(-c2ncc(Cl)c(Nc3cc(C4CC4)[nH]n3)n2)s1 [Compound 78]", "Ki", "100 to 500 nM"),
    ("NS(=O)(=O)c1ccc(-c2nc(Nc3cc(C4CC4)n[nH]3)cc(N3CCCC3)n2)s1 [Compound 284]", "Ki", "100 to 500 nM"),
    ("NCCNS(=O)(=O)c1ccc(-c2ncc(Cl)c(Nc3cc(C4CC4)[nH]n3)n2)s1 [Compound 75]", "Ki", "1 to 10 nM"),
]

From here, focus on the item given below.
The molecule OCC(O)c1ccc(-c2ncc(Cl)c(Nc3cc(C4CC4)[nH]n3)n2)s1 (centres unmarked) [Compound 327] showed Ki equal to 10 to 50 nM

---

Target: PknB (Mycobacterium tuberculosis)
Construct: made in house
Experiment: biochemical
Set-up: species or system M. tuberculosis
Conditions: 3 nM PknB, 6 uM GarA, 3 μM ATP, 30 min; competitive tight-binding fit; several symbols in a cell = repeat determinations
Assay Readout: Ki Values

# Compound, Recorded Result
data = [
    ("Oc1cccc(-c2ncc(Cl)c(Nc3cc(C4CC4)[nH]n3)n2)c1 [Compound 104]", "A*, A"),
    ("c1cc(Nc2cc(C3CC3)[nH]n2)nc(N2CCCCC2)n1 [Compound 64]", "A*, B**"),
    ("NS(=O)(=O)c1ccc(-c2ncc(CCO)c(Nc3cc(C4CC4)[nH]n3)n2)s1 [Compound 239]", "A*, B**"),
]

---

Biological target: PknB (Mycobacterium tuberculosis)
Construct: made in house
Experiment: biochemical
Parameters: species or system M. tuberculosis
Counter-ions that a name gives are not always drawn.
Assay Readout: Ki

Entry COC(=O)c1ccc(-c2ncc(Cl)c(Nc3cc(C4CC4)n[nH]3)n2)s1 [Compound 154, hydrochloride] , PknB (Mycobacterium tuberculosis) data, Ki value: 10 to 50 nM

---

So I've got a bunch of molecules here, and I need their Ki values.
Biological target: PknB (Mycobacterium tuberculosis, UniProt P9WI81)
Construct: made in house
Sequence (P9WI81 whole entry): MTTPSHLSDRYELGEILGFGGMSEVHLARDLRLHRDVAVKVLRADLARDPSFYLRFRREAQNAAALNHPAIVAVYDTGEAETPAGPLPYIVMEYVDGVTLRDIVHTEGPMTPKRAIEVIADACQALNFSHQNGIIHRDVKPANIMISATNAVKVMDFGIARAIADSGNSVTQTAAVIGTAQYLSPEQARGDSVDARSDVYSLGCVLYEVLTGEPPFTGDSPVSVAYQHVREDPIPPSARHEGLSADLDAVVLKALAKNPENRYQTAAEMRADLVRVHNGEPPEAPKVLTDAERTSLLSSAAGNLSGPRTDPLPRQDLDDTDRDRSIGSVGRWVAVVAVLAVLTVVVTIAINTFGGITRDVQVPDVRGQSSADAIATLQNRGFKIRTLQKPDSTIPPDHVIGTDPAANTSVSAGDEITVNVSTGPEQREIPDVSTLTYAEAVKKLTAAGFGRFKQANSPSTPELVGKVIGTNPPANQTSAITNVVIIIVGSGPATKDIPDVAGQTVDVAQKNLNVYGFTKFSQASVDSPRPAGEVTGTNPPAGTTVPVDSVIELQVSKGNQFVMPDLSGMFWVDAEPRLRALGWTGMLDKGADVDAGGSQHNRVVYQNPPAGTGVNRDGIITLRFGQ
Assay: biochemical
Set-up: species or system M. tuberculosis
Details: 3 nM PknB, 6 uM GarA, 3 μM ATP, 30 min; competitive tight-binding fit; several symbols in a cell = repeat determinations; read-out: Ki Values

# Sample Smiles, Recorded Result
data = [
    ("O=[N+]([O-])c1cnc(-c2ccccc2)nc1Nc1cc(C2CC2)[nH]n1", "> 4 µM"),
    ("Cc1cc(Nc2nc(-c3ccc(S(N)(=O)=O)s3)ncc2Cl)n[nH]1", "0.001 to 0.01 µM"),
    ("C#Cc1cnc(-c2ccc(CC#N)s2)nc1Nc1cc(C2CC2)n[nH]1", "0.001 to 0.01 µM"),
]

Dear colleague, could you please provide Ki for the molecules listed below?
1. CC(=O)OC/C=C/c1cnc(-c2ccccc2)nc1Nc1cc(C2CC2)[nH]n1
2. C#Cc1cnc(-c2ccc([C@H](C)O)s2)nc1Nc1cc(C2CC2)n[nH]1
3. OCc1ccc(-c2nccc(Nc3cc(C4CC4)[nH]n3)n2)s1
4. NS(=O)(=O)c1ccc(-c2ccc([N+](=O)[O-])c(Nc3cc(C4CC4)n[nH]3)n2)s1
5. CCc1cnc(N2CCN(C)CC2)nc1Nc1cc(C2CC2)[nH]n1

**Result**
1: 0.1 to 0.5 µM; 2: 0.001 to 0.01 µM; 3: 0.01 to 0.05 µM; 4: 0.001 to 0.01 µM; 5: > 4 µM

---

So I've got a bunch of compounds here, and I need their Ki values.
Molecular target: PknB (Mycobacterium tuberculosis, UniProt P9WI81)
Construct: made in house
Assay: biochemical
Set-up: species or system M. tuberculosis
Conditions: 3 nM PknB, 6 uM GarA, 3 μM ATP, 30 min; competitive tight-binding fit; several symbols in a cell = repeat determinations; read-out: Ki Values

# Compound, Tgt, Recorded Result
rows = [
    ("CC(C)c1cc(Nc2nc(-c3ccc(S(N)(=O)=O)s3)ncc2Cl)n[nH]1", "PknB (Mycobacterium tuberculosis, UniProt P9WI81)", "1 to 10 nM"),
    ("Cc1nc(-c2ncc(Cl)c(Nc3cc(C4CC4)[nH]n3)n2)sc1C(C)O (centres unmarked)", "PknB (Mycobacterium tuberculosis, UniProt P9WI81)", "100 to 500 nM"),
    ("NS(=O)(=O)c1ccc(-c2ncc(Cl)c(Nc3cc(C4CC4)[nH]n3)n2)s1", "PknB (Mycobacterium tuberculosis, UniProt P9WI81)", "1 to 10 nM"),
]

Dear colleague, could you please provide Ki for the compounds listed below?
1. O=C(O)c1ccc(-c2ncc(Cl)c(Nc3cc(C4CC4)n[nH]3)n2)s1
2. Clc1cnc(-c2ccco2)nc1Nc1cc(C2CC2)[nH]n1

**Result**
["50 to 100 nM", "100 to 500 nM"]

---

Target: PknB (Mycobacterium tuberculosis, UniProt P9WI81)
Construct: made in house
Assay: biochemical
Design: species or system M. tuberculosis
Conditions: 3 nM PknB, 6 uM GarA, 3 μM ATP, 30 min; competitive tight-binding fit; several symbols in a cell = repeat determinations; read-out: Ki Values
pKi: −log10 of the molar value.
Assay Readout: pKi

Solved entries (count: 3):
# Compound, Tgt, Recorded Result
records = [
    ("NC(=O)c1cc(-c2nccc(Nc3cc(C4CC4)[nH]n3)n2)ccc1Cl [Compound 51]", "PknB (Mycobacterium tuberculosis, UniProt P9WI81)", "7.00 to 7.30"),
    ("C#Cc1cnc(-c2ccc(C(O)CCOC)s2)nc1Nc1cc(C2CC2)n[nH]1 (stereo not shown) [Compound 230]", "PknB (Mycobacterium tuberculosis, UniProt P9WI81)", "7.00 to 7.30"),
    ("COCc1cnc(N2CCCCC2)nc1Nc1cc(C2CC2)[nH]n1 [Compound 70]", "PknB (Mycobacterium tuberculosis, UniProt P9WI81)", "< 5.40"),
]

Dear colleague, could you please provide pKi for the compounds listed below?
1. Cc1cnc(-c2ccc(C(O)CO)s2)nc1Nc1cc(C2CC2)[nH]n1 (stereo not shown) [Compound 326]
2. C/C=C\c1cnc(-c2ccc(S(N)(=O)=O)s2)nc1Nc1cc(C2CC2)[nH]n1 [Compound 207]
3. CC(C)(C)NS(=O)(=O)c1ccc(-c2ncc(Cl)c(Nc3cc(C4CCN(C(=O)OCc5ccccc5)C4)n[nH]3)n2)s1 (stereo not shown) [Compound 257]
4. O=S(=O)(NCC(F)(F)F)c1ccc(-c2ncc(Cl)c(Nc3cc(C4CC4)[nH]n3)n2)s1 [Compound 158]

**Result**
7.30 to 8.00
8.00 to 9.00
< 5.40
7.30 to 8.00

Dear colleague, could you please provide pKi for the compounds listed below?
1. Cc1cc(Nc2cc(C3CC3)[nH]n2)nc(-c2ccc(S(N)(=O)=O)s2)n1 [Compound 265]
2. C#Cc1cnc(N2CCCC2)nc1Nc1cc(C2CC2)[nH]n1 [Compound 178]
3. c1csc(-c2nccc(Nc3cc(C4CC4)[nH]n3)n2)c1 [Compound 27]
4. CC(O)c1ccc(-c2nccc(Nc3cc(C4CC4)[nH]n3)n2)cc1 (stereo not shown) [Compound 312]
5. COc1cc(Nc2cc(C3CC3)n[nH]2)nc(-c2ccc(S(N)(=O)=O)s2)n1 [Compound 293]
6. NS(=O)(=O)c1ccc(-c2ncc(Cl)c(Nc3cc(C4CCNC4)n[nH]3)n2)s1 (stereo not shown) [Compound 263]

**Result**
8.00 to 9.00
6.30 to 7.00
7.30 to 8.00
7.30 to 8.00
6.30 to 7.00
< 5.40
